Experiment: basal S. cerevisiae growth modulation, no modifier, primary screen, OD600, strain BY4716, 24 h, basal condition (AID 1173)
Details: OD600, 24 h, higher = more signal, called active from +8 up or from −8 down
z-score below 0.6 gives class 0; z-score at or above it gives class 1.

# compound, group
data = [
    ("COc1cc2c(cc1OC)CN(C(=O)[C@@H]1[C@H]3C(=O)O[C@H](c4ccccc4)[C@H](c4ccccc4)N3[C@H](c3ccc(O)cc3)[C@@]13C(=O)Nc1ccccc13)CC2", "class 0"),
    ("O=C1NC(=O)C2C1C=CC(C(O)c1cc(C(F)(F)F)cc(C(F)(F)F)c1)N2Nc1ccccn1 (configuration not stated)", "class 1"),
    ("CCCCCCc1nc(-c2ccc(OC)nc2)cc2c1[Si](C(C)C)(C(C)C)O[C@H]2c1ccccc1", "class 1"),
    ("CC1(C)C2C=C(C(O)C3C=CC4C(=O)NC(=O)C4N3Nc3ccc(Cl)cc3Cl)C[C@@H]1C2 (some centres not stated)", "class 0"),
]

Could you verify whether the entry `COc1ccc(C#Cc2ccc3c(c2)[C@]2(C(=O)N3)[C@H](C(=O)Nc3nc4ccccc4s3)[C@H]3C(=O)O[C@H](c4ccccc4)[C@H](c4ccccc4)N3[C@@H]2c2ccc(O)cc2)cc1` shows z-score of no less than 0.6?
class 0

Thanks! And `COC(=O)C(CC#Cc1ccc2c(c1)[C@]1(C(=O)N2)[C@H](c2ccc(OCCO)cc2)N2[C@H](c3ccccc3)[C@H](c3ccccc3)OC(=O)[C@H]2[C@@H]1C(=O)N1CCc2cc(OC)c(OC)cc2C1)C(=O)OC` ?
class 1

###

Tested on: wheat germ agglutinin (Triticum aestivum), Alexa647-labelled
Test: wheat germ agglutinin binders on compound microarrays, profiling panel, artefact control for SMM control-protein annotation, biochemical, small-molecule microarray, 635/667 nm fluorescence (AID 1140);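 note: score merges 667 nm feature emission with signal to noise over triplicate slides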
Settings: WGA-A647 binding, 635 nm fluorescence, higher = more signal
composite z-score below 0.4 gives Not met; composite z-score at or above it gives Met.

Previously resolved entries follow.
# compound, group
data = [
    ("C=CCNC(=O)[C@@H]1[C@H]2C(=O)O[C@H](c3ccccc3)[C@H](c3ccccc3)N2[C@H](c2ccc(O)cc2)[C@@]12C(=O)Nc1ccc(C#CCNC(N)=O)cc12", "Met"),
    ("O=C(c1ccccc1)N1Cc2ccccc2C[C@@]2(COC(c3ccc(OCCCO)cc3)=N2)C1=O", "Met"),
    ("C=CCOC(=O)[C@H]1[C@@H]2C(=O)O[C@@H](c3ccccc3)[C@@H](c3ccccc3)N2[C@@H](c2ccc(OCCOC(=O)[C@H]3C[C@H]4C(=O)N[C@@H](CCCC[N+](C)(C)C)C(=O)N4[C@H]3c3ccc(O)cc3)cc2)[C@]12C(=O)Nc1ccc(I)cc12", "Not met"),
    ("COCCOC(=O)N1C(=O)[C@@]2(c3cc(C#Cc4ccc(OC)cc4)ccc31)[C@H](c1ccccc1OCCO)N1[C@H](c3ccccc3)[C@H](c3ccccc3)OC(=O)[C@H]1[C@@H]2C(=O)NC[C@H](O)c1ccccc1", "Met"),
]

Could you verify whether the entry CCN(CC)c1ccc(N2CC=CC34O[C@@H]5C=CCCOC(=O)C5[C@H]3C(=O)N(CCCCCCO)[C@@H]4C2=O)cc1 (stereo partly specified) shows composite z-score of no less than 0.4?
Met

###

Assay: HepG2 cell viability effects, profiling panel, calcein-AM fluorescence, 48 h, basal (AID 1164); note: test concentration not given here
Conditions: higher = more signal
z-score below 0.009 gives n; z-score at or above it gives y.

Could you verify whether the entry `C[C@@]1([C@@H](NC(=O)c2ccc(-c3ccccc3)cc2)c2ccc(Cl)cc2)C[C@H]1C1CCCCC1` shows z-score of no less than 0.009?
n

Thanks! And `COCCOC(=O)N1C(=O)[C@@]2(c3cc(C#CCCO)ccc31)[C@H](C(=O)N1CCCCCCC1)[C@H]1C(=O)O[C@H](c3ccccc3)[C@H](c3ccccc3)N1[C@@H]2c1ccc(OCCO)cc1` ?
y

Thanks! And CC(=O)n1cc(C(O)C2C=CC3C(=O)N(c4ccccc4)C(=O)C3N2Nc2ccc([N+](=O)[O-])cc2)c2ccccc21 (configuration not stated) ?
n

Thanks! And `Cc1ccc(S[C@]2(C(=O)NCCCN(C)C)CC(=O)N(Cc3ccccc3C(F)(F)F)[C@@H]2c2ccc(CO)cc2)cc1` ?
y

Thanks! And CC1CC/C=C\[C@H]2OC34C=CCN(C(C)(C)C)C(=O)[C@H]3N(CCO)C(=O)[C@@H]4C2C(=O)O1 (some centres not stated) ?
n

Thanks! And CC(C)C(CO)N1C(=O)[C@@H]2C3C(=O)OCCC/C=C\[C@H]3OC23C=CCN(CCN2CCOCC2)C(=O)[C@@H]13 (some centres not stated) ?
n

Thanks! And `O=C1C[C@]2(c3ccc([N+](=O)[O-])cc3)C(=O)N(CC(F)(F)F)c3cc(CO)ccc3[C@H]2N1C1CCCCC1` ?
y

Thanks! And `COc1ccccc1CN1C(=O)c2ccccc2[C@@]2(Cc3ccccc3N(CC(C)C)C2=O)[C@@H]1c1ccc(CO)cc1` ?
n

Thanks! And `Cc1ccc(S[C@]2(C(=O)NC3CC3)CC(=O)N(Cc3ccccc3)[C@@H]2c2ccc(CO)cc2I)cc1` ?
y

Thanks! And `COc1ccc(C(=O)Nc2ccc(CN3C(=O)[C@]4(O[C@H](CCO)[C@@H]([Si](C)(C)c5ccc(OC)cc5)[C@@H]4C)c4ccccc43)cc2)cc1` ?
n

###

Test: HepG2 liver cancer cell viability effects, profiling panel, resazurin fluorescence, 24 h, PK04 Diversity Set (AID 1172); note: test concentration not given here
Settings: higher = more signal
readout-name: z-score
Give your answer as a number; write no unit.

Some solved cases for reference:
# compound, z-score
data = [
    ("CN(C)CCCCCCNC(=O)[C@@H]1C[C@@H]2C(=O)N[C@@H](Cc3ccccc3)C(=O)N2[C@@H]1c1ccc(O)cc1", -0.591),
    ("O=C1C[C@]2(c3ccc([N+](=O)[O-])cc3)C(=O)N(CC(F)(F)F)c3cc(CO)ccc3[C@H]2N1C1CCCCC1", 0.0882),
    ("CC(C)NC(=O)[C@@]1(C)c2ccccc2C(=O)N(Cc2cc(C(F)(F)F)cc(C(F)(F)F)c2)[C@H]1c1ccc(CO)cc1", 0.121),
    ("COCCOC(=O)N1C(=O)[C@@]2(c3ccccc31)[C@H](c1ccc(O)cc1)N1[C@H](c3ccccc3)[C@H](c3ccccc3)OC(=O)[C@H]1[C@@H]2C(=O)Nc1nc2ccccc2s1", -0.175),
    ("O=C(NCCN1CCOCC1)[C@@H]1c2ccccc2C(=O)N(C2CCCCC2)[C@H]1c1ccc(CO)cc1", -0.0383),
    ("C=CC1(C(=O)OC)CC=C(C(=O)OC)CC1 (configuration not stated)", 0.249),
    ("NCCCCCNC(=O)[C@@H]1C[C@@H]2C(=O)N[C@@H](Cc3ccccc3)C(=O)N2[C@@H]1c1ccc(O)cc1", -1.74),
    ("COc1ccccc1CN1C(=O)c2ccccc2[C@@]2(Cc3ccccc3N(CC(C)C)C2=O)[C@@H]1c1ccc(CO)cc1", -0.593),
    ("COCCOC(=O)N1C(=O)[C@@]2(c3cc(C#CCCO)ccc31)[C@H](C(=O)N1CCCCCCC1)[C@H]1C(=O)O[C@H](c3ccccc3)[C@H](c3ccccc3)N1[C@@H]2c1ccc(OCCO)cc1", 0.902),
    ("C=CC[C@@]12N=C(c3ccc(OCCCO)cc3)O[C@@H]1c1ccccc1N(C)C2=O", -0.0241),
]

Entry `CN(C)C(=O)[C@]1(Cc2ccccc2N=[N+]=[N-])N=C(c2ccc(OCCCO)cc2)O[C@@H]1c1ccccc1N=[N+]=[N-]` has what z-score?
-1.08

Thanks! And `O=C(CS)NCCCCCCNC(=O)[C@@H]1C[C@@H]2C(=O)N[C@@H](Cc3ccccc3)C(=O)N2[C@@H]1c1cccc(OCCO)c1` ?
0.531

Thanks! And CC1(C)[C@@H]2CC(C(O)C3C=CC4C(=O)N(c5ccccc5)C(=O)C4N3Nc3ccc([N+](=O)[O-])cc3)=C[C@H]1C2 (some centres not stated) ?
-0.128

Thanks! And `COc1ccc([Si](C)(C)[C@@H]2[C@@H](CC(=O)N3CCC[C@H]3CO)O[C@]3(C(=O)N(c4ccccc4)c4ccccc43)[C@H]2C)cc1` ?
0.733

Thanks! And `CCCC[C@@H]1C[C@H]1[C@@H](NC(=O)c1cccs1)c1ccc(-c2ccccc2)cc1` ?
1.13

Thanks! And CC1CC/C=C\[C@H]2OC34C=CCN(C(C)(C)C)C(=O)[C@H]3N(CCO)C(=O)[C@@H]4C2C(=O)O1 (some centres not stated) ?
0.488

Thanks! And `C=CC[C@]1(C(=O)NCc2ccccc2)N=C(c2ccc(OCCCO)cc2)O[C@H]1c1ccccc1N=[N+]=[N-]` ?
-0.0155

Thanks! And `COCCOC(=O)N1C(=O)[C@@]2(c3cc(C#CCC(C(=O)OC)C(=O)OC)ccc31)[C@H](C(=O)N1CCN(c3ncccn3)CC1)[C@H]1C(=O)O[C@H](c3ccccc3)[C@H](c3ccccc3)N1[C@@H]2c1ccccc1OCCO` ?
-0.354

Thanks! And `CC(C)C(=C=CC[C@@H](O)c1ccc(OCCO)cc1)C[C@@H](O)COCc1ccccc1` ?
0.932

Thanks! And `COc1ccc(-c2cc3c(c(-c4ccc(Oc5ccccc5)cc4)n2)[Si](C(C)C)(C(C)C)OC3)cn1` ?
-1.05

Thanks! And `CCCC=C(CCC)[C@@H](NC(=O)c1cccs1)c1ccc(C(F)(F)F)cc1` ?
0.74

Thanks! And `COCCOC(=O)N1C(=O)[C@@]2(c3cc(C#CC4(O)CCCCCC4)ccc31)[C@H](c1ccccc1OCCO)N1[C@H](c3ccccc3)[C@H](c3ccccc3)OC(=O)[C@H]1[C@@H]2C(=O)N1CCN(c2ncccn2)CC1` ?
-0.645

These entries and their values trace back to PubChem BioAssay.
